# test description: Therapeutic index, ratio of IC50 for human H9 cells to EC50 for HIV1 3B
# Format: cell-based
# details: H9 cells (cytotoxicity IC50) and HIV-1 3B (antiviral EC50)
Each record gets a class by selectivity ratio: bin 0 = under 3, bin 1 = from 3 up to 7, bin 2 = 7 and over

>  <compound>
C[C@@H](CC(=O)O)CC(=O)O[C@H]1CC[C@]2(C)[C@H]3CC=C4[C@@H]5CC(C)(C)CC[C@]5(C(=O)O)CC[C@@]4(C)[C@]3(C)CC[C@H]2C1(C)C

>  <label>
bin 1

$$$$
>  <compound>
CC1(C)CC[C@]2(C(=O)O)CC[C@]3(C)C(=CC[C@@H]4[C@@]5(C)CC[C@H](OC(=O)CCC(=O)O)C(C)(C)[C@@H]5CC[C@]43C)[C@@H]2C1 [OLEANOLIC ACID 3-O-SUCCINATE]

>  <label>
bin 0

$$$$
>  <compound>
CC1(C)CC[C@]2(C(=O)O)CC[C@]3(C)C(=CC[C@@H]4[C@@]5(C)CCC(=O)C(C)(C)[C@@H]5CC[C@]43C)[C@@H]2C1 [OLEANONIC ACID]

>  <label>
bin 2

$$$$
>  <compound>
CC1(C)CC[C@]2(C(=O)O)CC[C@]3(CO)C(=CC[C@@H]4[C@@]5(C)CC[C@H](O)C(C)(C)[C@@H]5CC[C@]43C)[C@@H]2C1

>  <label>
bin 1

$$$$
>  <compound>
CC1(C)CC[C@]2(C(=O)O)CC[C@]3(C)C(=CC[C@@H]4[C@@]5(C)CC[C@H](OC(=O)CC(C)(C)C(=O)O)C(C)(C)[C@@H]5CC[C@]43C)[C@@H]2C1

>  <label>
bin 2

$$$$
>  <compound>
C[C@@H]1CC[C@]2(C(=O)O)CC[C@]3(C)C(=CC[C@@H]4[C@@]5(C)CC[C@H](O)C(C)(C)[C@@H]5CC[C@]43C)[C@@H]2[C@]1(C)O [POMOLIC ACID]

>  <label>
bin 2

$$$$
>  <compound>
CC1(C)CC[C@]2(C(=O)O)CC[C@]3(C)C(=CC[C@@H]4[C@@]5(C)CC[C@H](OC(=O)CC6(CC(=O)O)CCCC6)C(C)(C)[C@@H]5CC[C@]43C)[C@@H]2C1

>  <label>
bin 1

$$$$
>  <compound>
C[C@H]1[C@H](C)CC[C@]2(C(=O)O)CC[C@]3(C)C(=CC[C@@H]4[C@@]5(C)CC[C@H](O)C(C)(C)[C@@H]5CC[C@]43C)[C@H]12 [URSOLIC ACID]

>  <label>
bin 1

$$$$
>  <compound>
C=C(C)[C@@H]1CC[C@]2(C(=O)O)CC[C@]3(C)[C@H](CC[C@@H]4[C@@]5(C)C[C@@H](O)[C@H](O)C(C)(C)[C@@H]5CC[C@]43C)[C@@H]12 [ALPHITOLIC ACID]

>  <label>
bin 0

$$$$
>  <compound>
CC(C)(CC(=O)O)CC(=O)O[C@H]1CC[C@]2(C)[C@H]3CC=C4[C@@H]5CC(C)(C)CC[C@]5(C(=O)O)CC[C@@]4(C)[C@]3(C)CC[C@H]2C1(C)C

>  <label>
bin 2

$$$$
>  <compound>
CC1(C)CC[C@]2(C(=O)O)CC[C@]3(C)C(=CC[C@@H]4[C@@]5(C)CC[C@H](OC(=O)CCCC(=O)O)C(C)(C)[C@@H]5CC[C@]43C)[C@@H]2C1

>  <label>
bin 0

$$$$

----------
Reported selectivity ratio values follow for various molecules
# test description: Therapeutic index, ratio of IC50 for human H9 cells to EC50 for HIV1 3B
# Type: cell-based
# details: H9 cells (cytotoxicity IC50) and HIV-1 3B (antiviral EC50)
readout name: selectivity ratio

>  <chem smiles>
C[C@@H]1CC[C@]2(C(=O)O)CC[C@]3(C)C(=CC[C@@H]4[C@@]5(C)CC(=O)[C@H](O)C(C)(C)[C@@H]5CC[C@]43C)[C@@H]2[C@]1(C)O

>  <readout name>
selectivity ratio

>  <observed value>
2

$$$$
>  <chem smiles>
C[C@H]1[C@H](C)CC[C@]2(C(=O)O)CC[C@]3(C)C(=CC[C@@H]4[C@@]5(C)C[C@@H](O)[C@H](O)C(C)(C)[C@@H]5CC[C@]43C)[C@H]12

>  <readout name>
selectivity ratio

>  <observed value>
2

$$$$
>  <chem smiles>
CC[C@@](C)(CC(=O)O)CC(=O)O[C@H]1CC[C@]2(C)[C@H]3CC=C4[C@@H]5CC(C)(C)CC[C@]5(C(=O)O)CC[C@@]4(C)[C@]3(C)CC[C@H]2C1(C)C

>  <readout name>
selectivity ratio

>  <observed value>
4.1

$$$$

----------
# System: H9 cells (Homo sapiens)
# test description: Cytotoxicity against human H9 cells after 4 days
# details: Homo sapiens, H9, 96 h; read-out: IC50
readout name: IC50 (µg/mL)

>  <chem smiles>
CC1(C)CC[C@]2(C(=O)[O-])CC[C@]3(C)C(=CC[C@@H]4[C@@]5(C)CC[C@H](O)C(C)(C)[C@@H]5CC[C@]43C)[C@@H]2C1.[K+]

>  <readout qualifier>
=

>  <observed value>
34.3

$$$$
>  <chem smiles>
C[C@@H]1CC[C@]2(C(=O)O)CC[C@]3(C)C(=CC[C@@H]4[C@@]5(C)C[C@@H](O)[C@@H](O)C(C)(C)[C@@H]5CC[C@]43C)[C@@H]2[C@]1(C)O

>  <readout qualifier>
=

>  <observed value>
37.5

$$$$
>  <chem smiles>
C=C(C)[C@@H]1CC[C@]2(C(=O)O)CC[C@]3(C)[C@H](CC[C@@H]4[C@@]5(C)C[C@@H](O)[C@H](O)C(C)(C)[C@@H]5CC[C@]43C)[C@@H]12

>  <readout qualifier>
=

>  <observed value>
4

$$$$
>  <chem smiles>
C[C@@H]1CC[C@]2(C(=O)O)CC[C@]3(C)C(=CC[C@@H]4[C@@]5(C)CC(=O)[C@H](O)C(C)(C)[C@@H]5CC[C@]43C)[C@@H]2[C@]1(C)O

>  <readout qualifier>
=

>  <observed value>
40

$$$$
>  <chem smiles>
C[C@@H]1CC[C@]2(C(=O)O)CC[C@]3(C)C(=CC[C@@H]4[C@@]5(C)[C@H](O)[C@@H](O)[C@@H](O)C(C)(C)[C@@H]5CC[C@]43C)[C@@H]2[C@]1(C)O

>  <readout qualifier>
>

>  <observed value>
100

$$$$

----------
# Test system: H9 cells (Homo sapiens)
# test description: Cytotoxicity against human H9 cells after 4 days
# details: Homo sapiens, H9, 96 h; read-out: IC50
Parameter: IC50. Scope: all listed entries.
readout name: IC50 (µg/mL)

>  <compound>
C[C@@H]1CC[C@]2(C(=O)O)CC[C@]3(C)C(=CC[C@@H]4[C@@]5(C)[C@H](O)[C@H](O)[C@H](O)C(C)(C)[C@@H]5CC[C@]43C)[C@@H]2[C@]1(C)O

>  <readout qualifier>
>

>  <observed value>
20

$$$$
>  <compound>
CC1(C)CC[C@]2(C(=O)O)CC[C@]3(C)C(=CC[C@@H]4[C@@]5(C)CC[C@H](O)C(C)(C)[C@@H]5CC[C@]43C)[C@@H]2C1 [OLEANOLIC_ACID]

>  <readout qualifier>
=

>  <observed value>
21.8

$$$$
>  <compound>
CC1(C)CC[C@]2(C(=O)O)CC[C@]3(C)C(=CC[C@@H]4[C@@]5(C)CC[C@H](OC(=O)CC(C)(C)C(=O)O)C(C)(C)[C@@H]5CC[C@]43C)[C@@H]2C1

>  <readout qualifier>
=

>  <observed value>
11.2

$$$$
